This document collects ΔTm values reported for Serine/threonine-protein kinase pim-2 (Homo sapiens, UniProt Q9P1W9).
Put down the number, then write its unit next to it.

compound	ΔTm
C[C@@H]1C[C@H]2O[C@@H]2/C=C\C=C\C(=O)Cc2c(Cl)c(O)cc(O)c2C(=O)O1 [RADICICOL]	0.1 °C

// recorded ΔTm for Nc1ncnc2c1c(I)cn2[C@@H]1O[C@H](CO)[C@@H](O)[C@H]1O : 1 °C

// recorded ΔTm for O=c1cc(N2CCOCC2)oc2c1ccc1ccccc12 : 1 °C

// recorded ΔTm for Cc1ccc(NC2=CC(=O)c3sc(C)nc3C2=O)cc1 : -0.6 °C

// recorded ΔTm for O=C1c2ccccc2-[n+]2ccc3c([nH]c4ccccc43)c21 [FASCAPLYSIN CHLORIDE] : -2.4 °C

// recorded ΔTm for CN1CCC(Nc2ncc3ncnc(Nc4ccc(F)c(Cl)c4)c3n2)CC1 [FALNIDAMOL] : 0.1 °C

// recorded ΔTm for COc1ccc(COc2ccc(Cc3cnc(N)nc3N)cc2OC)cc1 : 0.2 °C

// recorded ΔTm for Cc1cc(C=C2C(=O)C=CC2=O)cc(C)c1O : -5.7 °C

// recorded ΔTm for CCCCc1c(-c2ccc(O)cc2)[nH]c2nccnc12 [ALOISINE A] : 4.5 °C

// recorded ΔTm for Oc1cccc(-c2nc(N3CCOCC3)c3oc4ncccc4c3n2)c1 : 0.1 °C

// recorded ΔTm for COc1ccc2c(c[n+](C)c3c4cc5c(cc4ccc23)OCO5)c1OC [CHELERYTHRINE CHLORIDE] : -3.1 °C

// recorded ΔTm for COc1cc(O)c2c(c1)oc(=O)c1c3cc(O)c(O)cc3oc21 [WEDELOLACTONE] : 2.2 °C

// recorded ΔTm for Cc1nc(N)sc1-c1ccnc(Nc2cccc([N+](=O)[O-])c2)n1 : 8.1 °C

// recorded ΔTm for O=S(=O)(NCCNC/C=C/c1ccc(Br)cc1)c1cccc2cnccc12 : -0.3 °C

// recorded ΔTm for N=C(N)NCCNS(=O)(=O)c1cccc2cnccc12 : 0.6 °C

// recorded ΔTm for COc1cc2ncnc(Nc3cccc(O)c3)c2cc1OC : 0.6 °C

// recorded ΔTm for Cc1ccc(NC(=O)c2ccc(CN3CCN(C)CC3)cc2)cc1Nc1nccc(-c2cccnc2)n1 : 0.6 °C

// recorded ΔTm for O=c1c2ccccc2[nH]c(=S)n1CCN1CCC(=C(c2ccc(F)cc2)c2ccc(F)cc2)CC1 [DIACYLGLYCEROL KINASE INHIBITOR II] : 1.4 °C

// recorded ΔTm for CCOC(=O)c1cnc2oc3ccc(O)cc3c2c1-c1ccccc1 : 6.3 °C

// recorded ΔTm for CN(c1cccnc1)c1cc2c(Nc3ccc(F)c(Cl)c3)c(C#N)cnc2cn1 : 10.7 °C

// recorded ΔTm for Cc1cc(Nc2nc(-c3ccccc3)nc3ccccc23)n[nH]1 : 0.7 °C

// recorded ΔTm for NS(=O)(=O)c1ccc(Nc2nc(OCC3CCCCC3)c3nc[nH]c3n2)cc1 : 0.6 °C
